Documented melting point across a set of molecules

Sample records with melting point:
COc1ccc(C)cc1-c1ccc(S(=O)(=O)N2c3ccccc3CC2C(=O)NCc2ccc(C(=O)O)cc2)cc1 (stereo not given) ... 153 to 165 °C
CC1=CC(=O)C(C)=C(CCC(C)(C)COc2ccc(CC3SC(=O)NC3=O)cc2)C1=O (stereo not given) ... 173 °C
Nc1nc(Cc2ccc(Br)cc2)cc(C2CCN(C(=O)c3ccc4c(c3)OCO4)CC2)n1 ... 162 °C

Can you look up the measured melting point of Cc1cn(C[C@H]2CN(c3ccc(-c4ccc(C#N)nc4)c(F)c3)C(=O)O2)nn1 for me?
210 to 212 °C

Can you look up the measured melting point of CC1(C)CC(=O)C2(CCC(=O)O)CC1C2 for me?
90 to 93 °C

Can you look up the measured melting point of Oc1cnc(-c2ccccc2)c(F)c1 for me?
150 to 151 °C

====

Quantity measured: melting point

O=C(O)c1cnn2c(C3CC3)cc(-c3ccc(Cl)cc3)nc12 ... 242 to 243 °C
CN(C)NC(=O)C(C)(C)C ... 120 to 122 °C
O=C(O)c1cn(C2CC2)c2c(F)c(F)c(F)c(F)c2c1=O ... 179 to 180 °C
CCOC(=O)c1ccc(NC(=O)c2ccc(F)cc2)cc1 ... 172 to 174 °C
O=S(=O)(c1cccc(C(F)(F)F)c1)c1cc(Br)nc(Br)c1 ... 156 to 158 °C

Can you look up the measured melting point of Cc1nc2c(N)nc3ccccc3c2n1CCCCNC(=O)C1CCCCC1 for me?
192 to 193 °C

Can you look up the measured melting point of Nc1ccc(CCC(=O)NC23CC4CC(CC(C4)C2)C3)cc1N for me?
151 to 152 °C

Can you look up the measured melting point of COc1ccc(Cn2ccc3c(-c4ccco4)ncnc32)cc1 for me?
130 to 131 °C

Can you look up the measured melting point of Cc1cccc(C(=O)C2CC2)c1N for me?
64 °C

Can you look up the measured melting point of O=C(O)CCNC(=O)C=Cc1ccccc1 for me?
140 to 144 °C

====

Documented melting point across a set of molecules

CCOC(=O)Nc1nc(C)c(-c2nc3ccccc3c(=O)n2-c2cccc(Cl)c2)s1 ... 262 to 263 °C
N#CC1CN1C(=O)NC(=O)c1ccc2c(c1)CCCC2 (stereo not given) ... 166 to 168 °C
Cc1ccc(S(=O)(=O)OCC2Cc3cc(Cl)cc(OS(=O)(=O)C(F)(F)F)c3O2)cc1 (stereo not given) ... 55 to 57 °C
CCCc1nc2c(C)cc(C)nc2n1C1CCc2cc(-c3ccccc3-c3nnn[nH]3)ccc21 (stereo not given) ... 173 °C

We now examine a further molecule.
Can you look up the measured melting point of CCOC(=O)/C(Cl)=N/Nc1ccc(OC)cc1 for me?
87 to 89 °C

====

Documented melting point across a set of compounds

Sample records with melting point:
CCCCNC(=O)n1cc[nH]c1=S ... 66 to 68 °C
O=C(O)CCc1cccc(-c2nc(=O)c3ccc(Cl)cc3s2)n1 ... 224 to 225 °C
CCN(CC)C(=O)[C@@H](C)[C@H]1CC[C@H]2[C@@H]3CCC4=CC(=O)CC[C@]4(C)[C@H]3CC[C@]12C ... 198 to 199 °C
COC(=O)Cc1cc(Oc2nn(C)c(C(F)(F)F)c2Cl)ccc1[N+](=O)[O-] ... 112 to 115 °C
CC(C)(C)OC(=O)N1CCCC2(CCN(c3ccc4nc(-c5ccc(F)cc5)c(-c5ccnc6[nH]ccc56)n4n3)CC2)C1 ... 192 to 193 °C

Can you look up the measured melting point of COC(=O)c1ccc(CN2CCN(S(=O)(=O)c3ccccc3)CC2)cc1 for me?
145 to 146 °C

Can you look up the measured melting point of COc1nc(C(F)(F)F)cc(=O)n1-c1cc(OC(C)C)c(Br)cc1F for me?
137 °C

====

Quantity measured: melting point

Sample records with melting point:
COCc1ccc(OC)c(Br)c1O ... 98 to 100 °C
O=C(CCC1CCCC1)N1CCN(C(=O)c2cc(C(F)(F)F)cc(C(F)(F)F)c2)[C@H](Cc2c[nH]c3ccccc23)C1 ... 180 to 183 °C
CC1C(=O)NCCN1C(=O)C(Cl)Cl (centres undefined) ... 167 to 168 °C
Nc1nc2c(s1)CCN(CC=Cc1ccccc1[N+](=O)[O-])CC2 ... 125 to 128 °C
Cc1ccc(Oc2ccc3c4c(cccc24)C2=NC(=O)C(C#N)=C23)cc1 ... 232 to 233 °C

Can you look up the measured melting point of CC(C)(C)C(NC(=O)c1ccc(Cl)cc1)Nc1c(Nc2ccncc2)c(=O)c1=O (centres undefined) for me?
244 to 246 °C

Can you look up the measured melting point of CCC1(CC)c2cc(CBr)c(CBr)cc2C(CC)(CC)N1Cc1ccccc1 for me?
164 to 166 °C

Can you look up the measured melting point of CC1(C(=O)C(CC2CCCCC2)n2cncn2)COCOC1 (centres undefined) for me?
68 to 71 °C

Can you look up the measured melting point of CCCNC(=S)NC1=Nc2ccccc2CS1 for me?
180 to 184 °C

====

Quantity measured: melting point

Sample records with melting point:
CCOc1cc2ncc(C#N)c(N(C)c3ccccc3)c2cc1OCC ... 153 to 155 °C
Oc1ccc(-c2nc(-c3ccc(Cl)cc3)nc(-c3ccc(O)cc3O)n2)c(O)c1 ... 232 to 234 °C

Can you look up the measured melting point of CCNc1ccc(S(=O)c2ccccc2)cc1N (stereo not given) for me?
140 to 142 °C

Can you look up the measured melting point of COc1ccc(Nc2cnc3c(NCc4ccccc4)nc(NCCO)nc3c2)cc1 for me?
126 to 127 °C

Can you look up the measured melting point of COc1cc(C)c([N+](=O)[O-])cc1C(=O)NCC1CCCO1 (stereo not given) for me?
178 to 180 °C

====

Documented melting point across a set of molecules

Sample records with melting point:
Oc1ccc(Cc2ccccc2)c2cccnc12 ... 112 to 113 °C
CCC(=O)c1ccc(OC)c(OC(=O)CCl)c1 ... 77 to 79.5 °C
Cc1cc(C)c(C(=O)c2ccc(Cl)cc2)c(Cl)c1 ... 41 to 52 °C

We now examine a further molecule.
Can you look up the measured melting point of CC#CCOc1cc(Oc2ccc(F)c(C(F)(F)F)c2)ncn1 for me?
90.1 °C

====

Documented melting point across a set of molecules

Sample records with melting point:
N#Cc1cn(-c2ccc(Cl)cc2)c(=O)[nH]c1=O ... 236 to 239 °C
COC(=O)c1cc(N)c(N(C)C(C)=O)c(N)c1 ... 120 °C
CC(=O)C(Cl)=NNc1ccc(C)cc1 ... 141 to 143 °C
N#CNC(=O)[C@@H]1CCC(=O)N1C(=O)OCc1ccccc1 ... 185 to 186 °C
NCCOc1ccc(O)cc1 ... 175 °C
O=C(c1ccc(Cl)cc1)C(F)CCCl (centres undefined) ... 53 °C

Can you look up the measured melting point of Nc1cc(CS(=O)(=O)CCO)ccc1CS(=O)(=O)CCO for me?
196 to 198 °C

Can you look up the measured melting point of COc1ccc(C=CC(=O)CCCCc2ccccc2)cc1O for me?
70 to 75 °C

Can you look up the measured melting point of COc1ccc2c(c1)CC(C)CC2=O (centres undefined) for me?
70.5 to 70.6 °C

====

Documented melting point across a set of compounds

CC(C)(C)OC(=O)N[C@@H]1C(=O)N[C@H]1C1CCCCC1 (relative stereo) ... 130 to 132 °C
CN(C)C(=O)c1sc(C(c2ccc(Cl)cc2)c2c(Cl)cc(-n3ncc(=O)[nH]c3=O)cc2Cl)nc1-c1ccccc1 (stereo not given) ... 150 °C
CCCCCCCCCCCC(=O)OC1CC(c2ccccc2)N(O)C(c2ccccc2)C1C (stereo not given) ... 84 to 91 °C
CCOC(=O)c1cc2cccc(OC)c2[nH]1 ... 69 to 72 °C

We now examine a further compound.
Can you look up the measured melting point of CCc1nc(=O)n(C)c2sccc12 for me?
156 °C
